Biological target: Stromelysin-1 (Homo sapiens, UniProt P08254)
Sequence (P08254 whole entry): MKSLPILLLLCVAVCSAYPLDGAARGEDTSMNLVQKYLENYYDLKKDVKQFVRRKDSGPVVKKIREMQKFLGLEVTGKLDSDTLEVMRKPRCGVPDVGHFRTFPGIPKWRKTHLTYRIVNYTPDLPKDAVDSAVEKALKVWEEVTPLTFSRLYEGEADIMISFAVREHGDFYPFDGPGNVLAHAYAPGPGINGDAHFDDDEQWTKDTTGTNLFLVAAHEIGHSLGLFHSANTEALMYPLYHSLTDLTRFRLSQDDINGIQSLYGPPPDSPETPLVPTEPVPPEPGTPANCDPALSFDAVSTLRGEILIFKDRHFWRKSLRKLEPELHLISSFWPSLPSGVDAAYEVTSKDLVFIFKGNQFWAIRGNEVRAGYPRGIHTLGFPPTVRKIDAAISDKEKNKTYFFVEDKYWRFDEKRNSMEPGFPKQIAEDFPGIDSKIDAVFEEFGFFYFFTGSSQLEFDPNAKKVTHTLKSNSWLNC
Test: Inhibition of human MMP3 catalytic subunit by fluorometric analysis
Residues, ends and D or L forms follow the SMILES beside them.
measure.name: IC50 (µM)

compound	measure.name	value.measured
CCCCCCCCCCCC(=O)N[C@@H](CS)C(=O)NCC(=O)N[C@@H](CCCNC(=N)N)C(=O)O (HELM PEPTIDE1{[CCCCCCCCCCCC(=O)[*:2]].C.G.R}$$$$V2.0)	IC50	7

A: CC(C)[C@H](NC(=O)CNC(=O)[C@H](CS)NC(=O)[C@@H](N)CCCNC(=N)N)C(N)=O (H-RCGV-NH2)
B: CC(=O)N[C@@H](CCCNC(=N)N)C(=O)N[C@@H](CS)C(=O)NCC(=O)N[C@H](C(N)=O)C(C)C (Ac-RCGV-NH2)
Qu. Could you check which of A and B has a smaller value for IC50? Could you answer with the label of the item you picked?
Ans. B
(B: 10.2 µM, A: 173 µM)

Data origin: ChEMBL document CHEMBL4814066
